ASSAY_DETAILS: Intranasal triptans with alkylsaccharide in rats, plasma levels by HPLC
Format: in vivo
EXPERIMENTAL_PARAMETERS: Naratriptan 0.22 mg/kg intranasal; alkylsaccharide 0.02%
TEST_READOUT: Tmax

These solved cases illustrate the format of a correct answer.
COMPOUND | Tmax
CCCCCCCCO[C@@H]1O[C@H](CO)[C@@H](O[C@H]2O[C@H](CO)[C@@H](O)[C@H](O)[C@H]2O)[C@H](O)[C@H]1O [octyl maltoside, Octyl-β-D-maltoside] | ~1 to 2 h
CCCCCCCCCCCCCO[C@@H]1O[C@H](CO)[C@@H](O[C@H]2O[C@H](CO)[C@@H](O)[C@H](O)[C@H]2O)[C@H](O)[C@H]1O [tridecyl maltoside, tridecyl-β-D-maltoside] | ~1 h
CCCCCCCCCCO[C@@H]1O[C@H](CO)[C@@H](O[C@H]2O[C@H](CO)[C@@H](O)[C@H](O)[C@H]2O)[C@H](O)[C@H]1O [decyl maltoside, decyl-β-D-maltoside] | ~1 to 2 h
CCCCCCCCCCCCO[C@@H]1O[C@H](CO)[C@@H](O[C@H]2O[C@H](CO)[C@@H](O)[C@H](O)[C@H]2O)[C@H](O)[C@H]1O [dodecyl maltoside] | ~1 to 2 h

Okay, now this compound:
Ask | // Tmax lookup, key: CCCCCCCCCCCCCCO[C@@H]1O[C@H](CO)[C@@H](O[C@H]2O[C@H](CO)[C@@H](O)[C@H](O)[C@H]2O)[C@H](O)[C@H]1O [tetradecyl maltoside]
Reply | ~1 h

----------
ASSAY_DETAILS: Intranasal triptans with alkylsaccharide in rats, plasma levels by HPLC
Assay type: in vivo
EXPERIMENTAL_PARAMETERS: Sumatriptan 6.2 mg/kg intranasal; alkylsaccharide 0.02%
TEST_READOUT: Ratio Cmax(alkylsacch)/Cmax(No alkylsacch)

COMPOUND | MEASURED_VALUE
CCCCCCCCCCCCCCO[C@@H]1O[C@H](CO)[C@@H](O[C@H]2O[C@H](CO)[C@@H](O)[C@H](O)[C@H]2O)[C@H](O)[C@H]1O [tetradecyl maltoside] | ≦1.5
CCCCCCCCCCCCO[C@@H]1O[C@H](CO)[C@@H](O[C@H]2O[C@H](CO)[C@@H](O)[C@H](O)[C@H]2O)[C@H](O)[C@H]1O [dodecyl maltoside] | ≦1.5
CCCCCCCCCCO[C@@H]1O[C@H](CO)[C@@H](O[C@H]2O[C@H](CO)[C@@H](O)[C@H](O)[C@H]2O)[C@H](O)[C@H]1O [decyl maltoside, decyl-β-D-maltoside] | ≦1.5
CCCCCCCCCCCCCO[C@@H]1O[C@H](CO)[C@@H](O[C@H]2O[C@H](CO)[C@@H](O)[C@H](O)[C@H]2O)[C@H](O)[C@H]1O [tridecyl maltoside, tridecyl-β-D-maltoside] | ≦1.5

Ask | What Ratio Cmax(alkylsacch)/Cmax(No alkylsacch) value was documented for this compound, CCCCCCCCO[C@@H]1O[C@H](CO)[C@@H](O[C@H]2O[C@H](CO)[C@@H](O)[C@H](O)[C@H]2O)[C@H](O)[C@H]1O [octyl maltoside, Octyl-β-D-maltoside] ?
Reply | ≦1.5

----------
Reported Tmax values for the following compounds.
ASSAY_DETAILS: Intranasal triptans with alkylsaccharide in rats, plasma levels by HPLC;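 also: rats in groups of eight given 20 µL into one nostril, dose expressed as triptan free base, Cmax and Tmax read from plasma concentration–time curves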
Format: in vivo
EXPERIMENTAL_PARAMETERS: Rizatriptan […] intranasal; alkylsaccharide 0.5%

Study these solved cases before continuing.
COMPOUND | MEASURED_VALUE
CCCCCCCCCCCCO[C@@H]1O[C@H](CO)[C@@H](O[C@H]2O[C@H](CO)[C@@H](O)[C@H](O)[C@H]2O)[C@H](O)[C@H]1O [dodecyl maltoside] | ~5 to 15 min
CCCCCCCCCCCCCO[C@@H]1O[C@H](CO)[C@@H](O[C@H]2O[C@H](CO)[C@@H](O)[C@H](O)[C@H]2O)[C@H](O)[C@H]1O [tridecyl maltoside, tridecyl-β-D-maltoside] | ~5 to 15 min
CCCCCCCCCCO[C@@H]1O[C@H](CO)[C@@H](O[C@H]2O[C@H](CO)[C@@H](O)[C@H](O)[C@H]2O)[C@H](O)[C@H]1O [decyl maltoside, decyl-β-D-maltoside] | ~5 to 15 min

Ask | Reported Tmax for CCCCCCCCCCCCCCO[C@@H]1O[C@H](CO)[C@@H](O[C@H]2O[C@H](CO)[C@@H](O)[C@H](O)[C@H]2O)[C@H](O)[C@H]1O [tetradecyl maltoside] : what is it?
Reply | ~5 to 15 min

Ask | Give the measured Tmax of CCCCCCCCO[C@@H]1O[C@H](CO)[C@@H](O[C@H]2O[C@H](CO)[C@@H](O)[C@H](O)[C@H]2O)[C@H](O)[C@H]1O [octyl maltoside, Octyl-β-D-maltoside] .
Reply | ~60 to 120 min
